assay: Hemolytic activity in mouse erythrocyte incubated for 1 hr by microplate reader assay; format: toxicity, cell-based
Non-standard residues stand in square brackets, D forms with d. Residues, ends and D or L forms follow the SMILES beside them. Bip = N[C@@H](Cc1ccc(-c2ccccc2)cc1)C(=O)O; pY = N[C@@H](Cc1ccc(OP(=O)(O)O)cc1)C(=O)O; pT = C[C@@H](OP(=O)(O)O)[C@H](N)C(=O)O; 2Nal = N[C@@H](Cc1ccc2ccccc2c1)C(=O)O
value.type: MHC (µM)
Answer with a number only, understood to be in µM.

compound	observed.value
CC(C)C[C@H](NC(=O)[C@H](CC(C)C)NC(=O)[C@@H](NC(=O)[C@H](CCCCN)NC(=O)[C@H](CC(C)C)NC(=O)[C@H](CCCNC(=N)N)NC(=O)[C@H](CCCCN)NC(=O)[C@H](Cc1ccc(-c2ccccc2)cc1)NC(=O)[C@H](CC(C)C)NC(=O)CN)[C@@H](C)OP(=O)(O)O)C(N)=O (H-GL[Bip]KRLK[pT]LL-NH2)	125.83

Here's the next entry for you.
MHC reading for CC(C)C[C@H](NC(=O)[C@H](CC(C)C)NC(=O)[C@H](Cc1ccc(OP(=O)(O)O)cc1)NC(=O)[C@H](CCCCN)NC(=O)[C@H](CC(C)C)NC(=O)[C@H](CCCNC(=N)N)NC(=O)[C@H](CCCCN)NC(=O)[C@H](Cc1ccc2ccccc2c1)NC(=O)[C@H](CC(C)C)NC(=O)CN)C(N)=O (H-GL[2Nal]KRLK[pY]LL-NH2) : 164.57
